Cited source: patent US20220324865A1

pIC50 reference
Target: human EP3 receptor (Homo sapiens)
Experiment: Cellular in vitro assay for determining EP3 receptor activity (human EP3 cell line, sulprostone-stimulated calcium luminescence)
Settings: CHO cells expressing human EP3 and mitochondrial Clytin; antagonist mode, sulprostone at EC50; read-out: EP3 CHO mtCLY ANTAG IC50
pIC50: −log10 of the molar value.
observable: pIC50

* CN1CC(NC(=O)c2nn3cc(-c4ccc5c(c4)OCCO5)[nH]c(=O)c3c2C(F)(F)F)(c2ccc(F)cc2)C1 [6-535] | 8.38
* CC(C)c1c(C(=O)N[C@H](CCO)c2ccc(F)cc2)nn2cc(-c3ccc(Cl)cc3)[nH]c(=O)c12 [6-670] | 8.70
* Cc1ccc(-c2cn3nc(C(=O)NCC(C)(C)O)c(C4CC4)c3c(=O)[nH]2)cc1Cl [6-285] | 8.47
* COC[C@@H](C)NC(=O)c1nn2cc(-c3ccc(C(F)(F)F)c(C)c3)[nH]c(=O)c2c1C1CC1 [6-136] | 8.12
* C[C@@H](NC(=O)c1cc2c(=O)[nH]c(-c3ccc4ccccc4c3)cn2n1)c1ccc2ccccc2c1 [Example 2-41] | 8.67
* Cc1c(C(=O)NC(C)c2ccc(F)cc2)nn2c(C)c(-c3ccc4ccccc4c3)[nH]c(=O)c12 (stereo not drawn) [Example 3-21] | 8.74
* Cc1c(C(=O)NC2(c3ccccc3)CC2)nn2c(C)c(-c3ccc4ccccc4c3)[nH]c(=O)c12 [Example 3-25] | 8.62
* O=C(NCC1CCCCC1)c1cc2c(=O)[nH]c(-c3ccc4c(c3)OCCO4)cn2n1 [Example 1-43] | 8.77
* Cc1ccc(-c2cn3nc(C(=O)N[C@@H](c4ccc(F)cc4)C(F)(F)CO)c(C(F)(F)C(F)(F)F)c3c(=O)[nH]2)cc1Cl [6-487] | 9.17
* Cc1cc(-c2cn3nc(C(=O)NC(C)(C)C4CC4)c(C4CC4)c3c(=O)[nH]2)ccc1Cl [6-301] | 8.85
* CC[C@H](C)NC(=O)c1nn2cc(-c3ccc(Cl)c(C)c3)[nH]c(=O)c2c1C(F)(F)F [6-216] | 8.28
* Cc1ccc(-c2cn3nc(C(=O)N[C@H](C)C(C)C)c(C(F)(F)F)c3c(=O)[nH]2)cc1C [6-114] | 8.50
* Cc1ccc(-c2cn3nc(C(=O)NCC(O)C(F)(F)F)c(C4CC4)c3c(=O)[nH]2)cc1Cl (single isomer, unassigned) [6-260] | 9.09
* CC(C)(O)[C@@H](NC(=O)c1nn2cc(-c3ccc(Cl)c(Cl)c3)[nH]c(=O)c2c1C1CCC1)c1ccc(F)cc1 [6-568] | 8.98
* O=C(NC1CCN(CC(F)F)C1)c1nn2cc(-c3ccc4ccccc4c3)[nH]c(=O)c2c1C(F)(F)F (stereo not drawn) [6-518] | 8.77

----------
IC50 reference
Target: human EP3 receptor (Homo sapiens, UniProt P43115)
Sequence (P43115 1-390): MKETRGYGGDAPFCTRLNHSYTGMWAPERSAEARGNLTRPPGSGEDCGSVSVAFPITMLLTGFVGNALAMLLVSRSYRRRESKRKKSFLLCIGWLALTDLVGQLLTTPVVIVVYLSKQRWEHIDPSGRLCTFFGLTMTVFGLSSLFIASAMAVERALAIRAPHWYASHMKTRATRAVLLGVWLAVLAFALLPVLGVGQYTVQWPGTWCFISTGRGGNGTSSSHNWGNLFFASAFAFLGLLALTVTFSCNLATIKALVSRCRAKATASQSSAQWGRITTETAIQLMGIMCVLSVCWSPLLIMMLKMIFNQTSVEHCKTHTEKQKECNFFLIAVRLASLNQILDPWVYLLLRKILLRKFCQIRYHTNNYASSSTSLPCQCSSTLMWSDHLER
Test: Cellular in vitro assay for determining EP3 receptor activity (human EP3 cell line, sulprostone-stimulated calcium luminescence)
Conditions: CHO cells expressing human EP3 and mitochondrial Clytin; antagonist mode, sulprostone at EC50; read-out: EP3 CHO mtCLY ANTAG IC50
observable: IC50 (nM)

• Cc1ccc(-c2cn3nc(C(=O)N[C@H](C)C(C)(C)C)c(C(F)(F)F)c3c(=O)[nH]2)cc1Cl [6-192] = 3.03
• CC(C)c1c(C(=O)N[C@@H](c2ccc(F)cc2)C(C)(C)O)nn2cc(-c3cccc(Cl)c3)[nH]c(=O)c12 [6-683] = 1.06
• O=C(NC(c1ccc(F)cc1)C1(O)CC1)c1nn2cc(-c3ccc(Cl)c(Cl)c3)[nH]c(=O)c2c1C1CC1 (racemic) [6-422] = 0.7
• Cc1cccc2ncc(-c3cn4nc(C(=O)NC5CCS(=O)(=O)C5)c(C(C)C)c4c(=O)[nH]3)cc12 (stereo not shown) [Example 4-12] = 1.65
• O=C(NCc1cc(F)ccc1F)c1cc2c(=O)[nH]c(-c3ccc4ccccc4c3)cn2n1 [Example 2-53] = 3.7
• Cc1c(C(=O)NCc2cccc(CN(C)C)c2)nn2c(C)c(-c3ccc4ccccc4c3)[nH]c(=O)c12 [Example 3-42] = 4.9
• CC[C@H](C)NC(=O)c1nn2cc(-c3ccc(C)c(Cl)c3)[nH]c(=O)c2c1C(F)(F)F [6-190] = 2.25
